value.kind: pIC50
// returns pIC50 (minus log10 of molar concentration), number only

// lookup pIC50 | system=DNA polymerase beta (Homo sapiens, UniProt P06746) | key= "COc1cc(O)c2c(=O)c3c(O)c(-c4c(O)c([C@@H]5O[C@H](CO)[C@@H](O)[C@H](O)[C@H]5O)c(O)c5c(=O)cc(-c6ccc(O)c(O)c6)oc45)cc(O)c3oc2c1"
4.24

* * *

# system.name: Human immunodeficiency virus type 1 reverse transcriptase (Human immunodeficiency virus 1)
# assay.comment: Inhibition of HIV1 reverse transcriptase p66/p51 using TTP substrate by mixed type competitive inhibition assay
value.kind: pKi
// returns pKi (minus log10 of molar concentration), number only

I am curious: what pKi value has been reported for "COc1cc(O)c2c(=O)c3c(O)c(-c4c(O)c([C@@H]5O[C@H](CO)[C@@H](O)[C@H](O)[C@H]5O)c(O)c5c(=O)cc(-c6ccc(O)c(O)c6)oc45)cc(O)c3oc2c1" ?
5.15

* * *

# assay.comment: Inhibition of RNA polymerase
I'd appreciate it if you could supply pIC50 values for the items below.
// returns pIC50 (minus log10 of molar concentration), number only

I am curious: what pIC50 value has been reported for "COc1cc(O)c2c(=O)c3c(O)c(-c4c(O)c([C@@H]5O[C@H](CO)[C@@H](O)[C@H](O)[C@H]5O)c(O)c5c(=O)cc(-c6ccc(O)c(O)c6)oc45)cc(O)c3oc2c1" ?
3.57

I am curious: what pIC50 value has been reported for "C=C1C(=O)O[C@@H](CCCCCCCCCCCCC)[C@@H]1C(=O)O" ?
4.03

* * *

# system.name: Human immunodeficiency virus type 1 reverse transcriptase (Human immunodeficiency virus 1, UniProt Q72547)
# assay.comment: Inhibition of HIV1 reverse transcriptase p66/p51 using TTP substrate by non-competitive inhibition type assay
value.kind: pKi
// returns pKi (minus log10 of molar concentration), number only

I am curious: what pKi value has been reported for "CC1(C)CC[C@]2(C(=O)O)CC=C3[C@]4(C)CC[C@H]5C(C)(C)[C@@H](OC(=O)c6ccc(O)cc6)C[C@@H](O)[C@]5(C)[C@H]4CC[C@@]3(C)[C@H]2C1" ?
5.08

I am curious: what pKi value has been reported for "C=C1C(=O)O[C@@H](CCCCCCCCCCCCC)[C@@H]1C(=O)O" ?
5.15

* * *

I'd appreciate it if you could supply IC50 values for the items below.
# assay.comment: Inhibition of AMV reverse transcriptase
# Parameters: species or system Avian myeloblastosis virus
Provide only the numeric value, understood in µM.

I am curious: what IC50 value has been reported for "COc1cc(O)c2c(=O)c3c(O)c(-c4c(O)c([C@@H]5O[C@H](CO)[C@@H](O)[C@H](O)[C@H]5O)c(O)c5c(=O)cc(-c6ccc(O)c(O)c6)oc45)cc(O)c3oc2c1" ?
81

I am curious: what IC50 value has been reported for "C=C1C(=O)O[C@@H](CCCCCCCCCCCCC)[C@@H]1C(=O)O" ?
21.9

I am curious: what IC50 value has been reported for "CC1(C)CC[C@]2(C(=O)O)CC=C3[C@]4(C)CC[C@H]5C(C)(C)[C@@H](OC(=O)c6ccc(O)cc6)C[C@@H](O)[C@]5(C)[C@H]4CC[C@@]3(C)[C@H]2C1" ?
15.1

I am curious: what IC50 value has been reported for "Cc1cn([C@H]2C[C@H](N=[N+]=[N-])[C@@H](CO)O2)c(=O)[nH]c1=O" ?
0.43

Reference for the values: ChEMBL document CHEMBL1159269
